Known self-cleavage kobs at 640 uM GlcN6P of a selection of variants
B1: glmS ribozyme (parent)
chain: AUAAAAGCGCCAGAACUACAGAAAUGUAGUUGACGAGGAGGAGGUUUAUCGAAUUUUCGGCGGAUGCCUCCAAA

variants of: B1; test: self-cleavage kobs at 640 uM GlcN6P; higher = faster cleavage; RNA array; conditions: with glucosamine-6-phosphate
This sample holds only a part of the variants without activity.

Below, 5 variants whose answers are already recorded.
A42C G43U C70U = < 1e-05 s⁻¹
A12G C67G C68A = 0.000113 s⁻¹
A33U G59U = < 1e-05 s⁻¹
G44C U57G C58U = < 1e-05 s⁻¹
C16U A39G C58A = 9.4e-05 s⁻¹

Qu. If you can, please state the reported self-cleavage kobs at 640 uM GlcN6P value of C34G C58U .
Ans. < 1e-05 s⁻¹

Reference for the values: the supplement of paper PMC7125110
